- test name: NCI Yeast Anticancer Drug Screen. Data for the sgs1 mgt1 strain (AID 161);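 also: 0% = growth of cultures given vehicle only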
- test settings: S. cerevisiae sgs1 mgt1 strain, at 50.0 µM
This is part of a sample that, as a whole, favours compounds with a hit. Of some 79,000 tested, about 15% had one in any assay. The source made the active and inactive calls. Rule as the data show it: active = growth inhibition above about 70%; inactive = the rest.
Give your call using only these classes: class 1 for active, class 0 for inactive

Example cases with answers are listed next.
compound=COc1ccc(OC)c(NC(=O)OCc2ccc3c(c2)OCO3)c1 assigned_category="class 0"
compound=CCCCOS(=O)(=O)c1ccc([N+](C)(C)C)cc1 assigned_category="class 0"
compound="C=C1CC[N+]2(CCCCCC)CCCC12 (centres undefined)" assigned_category="class 0"
compound="OC1CCCCC12CC2 (centres undefined)" assigned_category="class 0"
compound=O=[N+]([O-])c1ccc(NCn2c(=S)sc3ccccc32)cc1 assigned_category="class 0"
compound=Nc1cc(Cl)ccc1S(=O)(=O)O assigned_category="class 0"

Qu. Answer briefly: the call reported for CNC(=O)c1ccccc1CC1(O)CCCC1 in this assay.
Ans. class 0

Recorded values, source PubChem BioAssay (NCI).
